Assay: chemical genetic growth profiling, strain panel (AID 1159580);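 further: tested at 20 µM; growth read once vehicle control cultures reached saturation at 30 °C; 1 = growth at the plate median or of vehicle wells; lower values mean less growth of the strain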
Settings: S. cerevisiae deletion strains, growth OD, locus YOL012C, strain htz1
Hit rate of the full screen: of about 5,500 compounds, about 2,000 (36%) were called active. Not shown: some 18% with an inconclusive outcome. This is one part of the list.

- molecule: "CC(=O)OCC(=O)[C@@]12OC3(CCCC3)O[C@@H]1CC1C3CCC4=CC(=O)C=C[C@]4(C)[C@@]3(F)[C@@H](O)C[C@@]12C (stereo partly drawn)"
  normalized growth: 0.599
- molecule: "COC1(C)CCC2OC2(C)CCC2C1CC2(C)C (stereo not drawn)"
  normalized growth: 1.84
- molecule: "COc1ccc(C2C(=O)c3ccccc3C2=O)cc1"
  normalized growth: 0.937

* * *

Assay: chemical genetic growth profiling, strain panel (AID 1159580);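 further: tested at 20 µM; growth read once vehicle control cultures reached saturation at 30 °C; 1 = growth at the plate median or of vehicle wells; lower values mean less growth of the strain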
Conditions: S. cerevisiae deletion strains, growth OD, locus YNL248C, strain rpa49
In all, about 5,500 compounds went through this assay and about 2,000 (36%) were called active. Inconclusive results (about 18%) are left out. No stated cut-off is given here; in the data, active means normalized growth mostly below about 0.91 (no sharp cut-off); inconclusive means no clear call, values can overlap the other calls; inactive means mostly above about 0.92. The list shows a part of the results.
Labels: True = active, False = inactive

- molecule: "CC[C@@H](CO)NC(=O)[C@@H]1C=C2c3cccc4[nH]cc(c34)C[C@H]2N(C)C1"
  category: "False"
- molecule: "Cc1onc(-c2c(Cl)cccc2Cl)c1C(=O)N[C@@H]1C(=O)N2[C@@H]1SC(C)(C)[C@@H]2C(=O)O"
  category: "False"
- molecule: "COc1cc(-c2oc3cc(O)ccc3c(=O)c2O)ccc1O"
  category: "False"
- molecule: "CN1CCN(CCCN2c3ccccc3Sc3ccc(C(F)(F)F)cc32)CC1"
  category: "True"
- molecule: "CCNc1nc(Cl)nc(NCC)n1"
  category: "False"
- molecule: "NC(=O)NO"
  category: "False"
- molecule: "CCOC([O-])=Nc1c[n+](N2CCOCC2)no1"
  category: "False"
- molecule: "CC(=O)OC[C@H]1O[C@@H](Oc2cc(OC(C)=O)c3c(=O)cc(-c4ccc(OC(C)=O)cc4)oc3c2)[C@H](OC(C)=O)[C@@H](OC(C)=O)[C@@H]1OC(C)=O"
  category: "False"
- molecule: "COc1ccc(-c2oc3ccccc3c(=O)c2O)cc1OC"
  category: "True"
- molecule: "CC(=O)NO"
  category: "False"
- molecule: "NCCc1cc(O)c(O)cc1O"
  category: "True"
- molecule: "COC(=O)C[C@H]1C(C)(C)[C@@H](O)[C@@H]2CC3=C4C=C(OC)O[C@@H](c5ccoc5)[C@]4(C)CCC3[C@@]1(C)C2=O (stereo partly drawn)"
  category: "False"
- molecule: "C=C(C)[C@H]1Cc2c(ccc3c2O[C@@H]2COc4cc(OC)c(OC)cc4[C@@H]2C3=O)O1"
  category: "False"

* * *

Experiment: chemical genetic growth profiling, strain panel (AID 1159580);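 further: tested at 20 µM; growth read once vehicle control cultures reached saturation at 30 °C; 1 = growth at the plate median or of vehicle wells; lower values mean less growth of the strain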
Conditions: S. cerevisiae deletion strains, growth OD, locus YMR001C, strain CDC5, active compounds read low
The campaign covered roughly 5,500 compounds. About 2,000 (36%) were called active. Inconclusive results (about 18%) are left out. The list shows a part of the results.

- mol: "O=C(Nc1cccnc1)c1cc2c(s1)-c1ccccc1CC2"
  normalized growth: "0.918 (inactive)"
- mol: "S=C(Nc1ccc(Cl)cc1)Nc1ccc(Cl)cc1"
  normalized growth: "0.922 (inactive)"
- mol: "FC(F)(F)c1cc(-c2ccc(Cl)cc2)n[nH]1"
  normalized growth: "0.911 (inactive)"
